Each entry below lists one item and its recorded neutralization IC50 value.
# target under test: Env of HIV-1 strain H086.8 (HIV-1)
# measurement description: cell-based or functional assay
All answers are understood in µg/mL, so give the number only.

γ23κ5 (antibody, V domains shown) VH: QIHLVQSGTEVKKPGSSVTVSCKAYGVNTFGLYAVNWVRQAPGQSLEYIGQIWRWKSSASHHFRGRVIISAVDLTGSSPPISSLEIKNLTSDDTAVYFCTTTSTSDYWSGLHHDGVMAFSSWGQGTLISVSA VL: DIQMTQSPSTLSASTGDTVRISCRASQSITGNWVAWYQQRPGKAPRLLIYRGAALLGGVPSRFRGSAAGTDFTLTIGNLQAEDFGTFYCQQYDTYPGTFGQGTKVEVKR; 0.474

Ask: What does the data say about its neutralization IC50? Entry: 8ANC3044 (antibody, V domains shown) VH: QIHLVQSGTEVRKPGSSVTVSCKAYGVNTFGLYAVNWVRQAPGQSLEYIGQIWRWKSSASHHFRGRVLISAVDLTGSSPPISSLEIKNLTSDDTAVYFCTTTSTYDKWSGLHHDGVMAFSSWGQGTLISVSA VL: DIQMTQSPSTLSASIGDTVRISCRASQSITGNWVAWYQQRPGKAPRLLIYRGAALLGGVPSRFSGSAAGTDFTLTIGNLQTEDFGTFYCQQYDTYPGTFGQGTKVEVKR
Reply: 3.83

Taken from patent US20180171001A1.
